# Kd per entry
assay target: T1, recombinant human B7-H4-huIgG1 (human)
T1 construct: also called B7-H4-extracellular domain (ECD)
T1 sequence (chain, as listed by the source limits assumed): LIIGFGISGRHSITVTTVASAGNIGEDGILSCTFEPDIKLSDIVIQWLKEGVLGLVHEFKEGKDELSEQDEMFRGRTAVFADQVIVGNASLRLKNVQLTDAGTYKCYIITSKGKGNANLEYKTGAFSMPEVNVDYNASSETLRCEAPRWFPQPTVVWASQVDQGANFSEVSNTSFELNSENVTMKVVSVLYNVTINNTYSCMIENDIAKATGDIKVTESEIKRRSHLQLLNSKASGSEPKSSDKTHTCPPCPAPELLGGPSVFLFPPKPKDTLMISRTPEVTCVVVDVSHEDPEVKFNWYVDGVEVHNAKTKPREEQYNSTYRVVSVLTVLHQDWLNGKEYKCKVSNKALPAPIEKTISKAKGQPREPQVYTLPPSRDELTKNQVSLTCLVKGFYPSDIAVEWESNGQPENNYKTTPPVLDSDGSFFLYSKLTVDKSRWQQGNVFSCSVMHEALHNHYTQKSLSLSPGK
experiment notes: BLI, antigen on Protein A tips;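 also: Anti-B7-H4 antibodies assessed for affinity toward the B7-H4 extracellular domain using biolayer interferometry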
Numeric answer only, unit nM assumed.

In the examples that follow, each entry is paired with its recorded Kd.
{"binder": "B7-H4 antibody 20516 (antibody, human IgG1, kappa, V domains shown, human IgG1/kappa) VH: QVQLQESGPGLVKPSETLSLTCTVSGGSIISYYWGWIRQPPGKGLEWIGYIYSSGSTSYNPSLKSRVTISVDTSKNQFSLKLSSVTAADTAVYYCARGSGLYAAPDYGLDVWGQGTTVTVSS VL: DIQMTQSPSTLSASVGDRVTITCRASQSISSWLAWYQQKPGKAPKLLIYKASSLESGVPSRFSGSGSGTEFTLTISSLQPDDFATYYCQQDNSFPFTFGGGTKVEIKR", "assay metric": "Kd", "display unit": "nM", "recorded number": 18}
{"binder": "B7-H4 antibody 20502 (antibody, V domains shown, human IgG1/kappa) VH: QLQLQESGPGLVKPSETLSLTCTVSGGSIKSGSYYWGWIRQPPGKGLEWIGNIYYSGSTYYNPSLRSRVTISVDTSKNQFSLKLSSVTAADTAVYYCAREGSYPNQFDPWGQGTLVTVSS VL: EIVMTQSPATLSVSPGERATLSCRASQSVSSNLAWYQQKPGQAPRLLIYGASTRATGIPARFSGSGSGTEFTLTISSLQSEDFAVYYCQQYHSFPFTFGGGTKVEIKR", "assay metric": "Kd", "display unit": "nM", "recorded number": 1.2}

Continue with the binder presented below.
Value lookup for Kd; key = B7-H4 antibody 20496 (antibody, human IgG1, kappa, V domains shown, human IgG1/kappa) VH: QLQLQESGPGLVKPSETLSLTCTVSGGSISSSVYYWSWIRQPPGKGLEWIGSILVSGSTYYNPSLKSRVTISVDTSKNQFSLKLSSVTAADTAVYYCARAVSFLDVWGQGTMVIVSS VL: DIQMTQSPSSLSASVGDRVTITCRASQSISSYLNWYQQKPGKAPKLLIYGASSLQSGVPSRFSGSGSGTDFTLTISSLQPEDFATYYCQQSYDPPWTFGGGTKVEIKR
0.805
